Data credit: PubChem BioAssay AID449762

System: M. tuberculosis H37Rv growth inhibition, 7H9 media
Assay: M. tuberculosis growth inhibition, HTS (AID 449762);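 further: bacterial growth assessed after seven days of incubation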
Conditions: measured here: IC90 growth inhibition
Results filed as inconclusive are left out.
Measured IC90 accompanies every entry in the list below.
Only the number, expressed in µM, is required.

O=C1/C(=C\c2ccncc2)CCc2ccccc21 : 34.8
O=C(OCn1ncc(Br)c(Br)c1=O)c1ccc(F)cc1 : 3.58
COc1ccc(-c2nc(CN3CCN(c4cc(C)nc(C)c4)CC3)c(C)o2)c2ccccc12 : 25.2
COc1ccc(-c2csc(NC(C)c3nc4cc(Cl)c(N5CCCCC5)cc4n3CCCO)n2)cc1 (configuration not stated) : 12.7
CN(C)C/C=C/C(=O)Nc1cccc(-c2c[nH]c3ncnc(Oc4ccc(NC(=O)CC(=O)Nc5ccc(F)cc5)cc4F)c23)c1 : 14.7

// query # get_value(readout= IC90, system= M. tuberculosis H37Rv growth inhibition, 7H9 media) for O=[N+]([O-])c1cc([N+](=O)[O-])c2c(=Nc3ccccc3)n(-c3ccccc3)n(O)c2c1
// result 9.25

// query Entry to check: COc1ccc(C(CC(=O)c2ccccc2)S(=O)(=O)c2ccc(C)cc2)cc1 (configuration not stated)
// result 29.4

// query Entry to check: Cc1ccsc1/C=C1\SC(N2CCOCC2)=NC1=O
// result 34.1

// query Entry to check: CCC(=O)c1ccc(OCC(O)CN2CCN(c3cccc(C(F)(F)F)c3)CC2)cc1 (configuration not stated)
// result 28

* * *

Measured IC90 accompanies every entry in the list below.
System: M. tuberculosis H37Rv growth inhibition, 7H9 media
Assay: M. tuberculosis growth inhibition, HTS (AID 449762);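 further: bacterial growth assessed after seven days of incubation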
Settings: measured here: IC90 growth inhibition
Results filed as inconclusive are left out.
Only the number, expressed in µM, is required.

Worked set:
CCN(CC)Cc1nc2c(c(=O)[nH]1)C(CC)(CC)Cc1ccccc1-2 : 18.4
CCCCS(=O)(=O)/C=C\C=C/S(=O)(=O)CCCC : 1.96

// query Fill blank: measured IC90 of the compound CCCOc1ccc2c(c1)C(=NN=C(N)N)c1cc(OCCC)ccc1-2 is ____.
// result 13.1

// query Entry to check: C(=C\c1nccc2c1[nH]c1ccccc12)/c1ccccc1
// result 48.2

// query Entry to check: COc1ccc(C2CC2/C(C)=N/OC(=O)c2ccc(F)cc2)cc1 (configuration not stated)
// result 51.6

* * *

System: M. tuberculosis H37Rv growth inhibition, 7H9 media
Assay: M. tuberculosis growth inhibition, HTS (AID 449762);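 further: bacterial growth assessed after seven days of incubation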
Details: measured here: IC90 growth inhibition
Records with an inconclusive call do not appear.
measurement_type: IC90 (µM)
Only the number, expressed in µM, is required.

Worked set:
Cc1ccc(C(=O)C[n+]2cc(-c3ccc(C)cc3)n3c2CCCCC3)cc1 : 19.8
CSCCOC(=O)COc1ccc(/C=N/NC(=O)c2c(Cl)cnn2C)cc1 : 22.6
CCN(Cc1ccncc1)Cc1nc(-c2ccc(C(=O)OC)cc2)no1 : 41.6

Then there is this compound:
// query Fill blank: measured IC90 of the compound c1ccc(CC2CCN(C3=Nc4cccc5cccc3c45)CC2)cc1 is ____.
// result 38.1

* * *

Measured IC90 accompanies every entry in the list below.
Test system: M. tuberculosis H37Rv growth inhibition, 7H9 media
Assay: M. tuberculosis growth inhibition, HTS (AID 449762);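 further: bacterial growth assessed after seven days of incubation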
Conditions: measured here: IC90 growth inhibition
Records with an inconclusive call do not appear.
Only the number, expressed in µM, is required.

CCCCCCCCn1cnc2c(N)c(C)c(C)cc21 : 60
CCOC(=O)C1=C(C)Nc2nc(SCC(=O)OC)nn2C1c1cc(F)cc(F)c1 (stereo unspecified) : 7.95

Then there is this compound:
// query # get_value(readout= IC90, system= M. tuberculosis H37Rv growth inhibition, 7H9 media) for Fc1cccc(CCN2CCNC[C@H]2Cc2cccc3ccccc23)c1
// result 43.2
